Each entry below carries its measured AC50, system: Neuronal acetylcholine receptor subunit alpha-4 (Homo sapiens, UniProt P43681). Also: assay procedure not described here.
Sequence (P43681 whole entry): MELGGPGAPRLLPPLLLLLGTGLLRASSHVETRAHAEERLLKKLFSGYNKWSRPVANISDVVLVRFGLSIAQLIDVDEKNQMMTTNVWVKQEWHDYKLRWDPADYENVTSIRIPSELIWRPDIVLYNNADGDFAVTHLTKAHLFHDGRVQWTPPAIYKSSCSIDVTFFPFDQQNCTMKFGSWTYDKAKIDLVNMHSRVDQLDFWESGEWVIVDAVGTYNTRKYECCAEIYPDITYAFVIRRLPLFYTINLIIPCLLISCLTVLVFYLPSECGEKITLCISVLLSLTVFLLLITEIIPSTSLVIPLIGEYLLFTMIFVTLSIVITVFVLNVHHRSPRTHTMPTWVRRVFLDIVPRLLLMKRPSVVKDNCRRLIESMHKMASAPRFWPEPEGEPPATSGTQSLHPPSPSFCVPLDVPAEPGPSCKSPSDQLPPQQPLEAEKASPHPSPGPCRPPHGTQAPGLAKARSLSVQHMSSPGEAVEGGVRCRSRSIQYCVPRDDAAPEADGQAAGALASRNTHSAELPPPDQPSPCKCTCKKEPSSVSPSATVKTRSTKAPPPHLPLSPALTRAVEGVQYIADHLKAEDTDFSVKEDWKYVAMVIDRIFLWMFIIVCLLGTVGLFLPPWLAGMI

Please review the following examples before continuing.
1) COc1ccc(C(Cl)=C(c2ccc(OC)cc2)c2ccc(OC)cc2)cc1
> 30 µM
2) CCN(CC)Cc1nccn1-c1ccc([N+](=O)[O-])cc1C(=O)c1ccccc1Cl
8.3 µM

Request: Which AC50 is reported for this molecule? COc1ccc2c3c1O[C@H]1C(=O)CC[C@H]4[C@@H](C2)N(C)CC[C@]314 [HYDROCODONE]
Result: > 10 µM

Request: Which AC50 is reported for this molecule? `CN(C)CCN(Cc1ccccc1)c1ccccn1`
Result: > 10 µM

Request: Which AC50 is reported for this molecule? CCC(=O)c1ccc2c(c1)N(CC(C)N(C)C)c1ccccc1S2 (configuration not stated)
Result: > 10 µM

Request: Which AC50 is reported for this molecule? `CN(C)CCc1c[nH]c2ccc(CS(=O)(=O)N3CCCC3)cc12`
Result: > 30 µM

Request: Which AC50 is reported for this molecule? CC1=C(/C=C/C(C)=C/C=C/C(C)=C/C(=O)Oc2c(C)c(C)c3c(c2C)CCC(C)(CCCC(C)CCCC(C)CCCC(C)C)O3)C(C)(C)CCC1 (configuration not stated)
Result: > 30 µM

Request: Which AC50 is reported for this molecule? CCOC(=O)O[C@]1(C(=O)COC(=O)CC)CC[C@H]2[C@@H]3CCC4=CC(=O)C=C[C@]4(C)[C@H]3[C@@H](O)C[C@@]21C [PREDNICARBATE]
Result: > 10 µM

Request: Which AC50 is reported for this molecule? `Nc1ccc(S(=O)(=O)Nc2ncccn2)cc1`
Result: > 10 µM

Request: Which AC50 is reported for this molecule? CCN(CCO)CCCC(C)Nc1ccnc2cc(Cl)ccc12 (configuration not stated) [HYDROXYCHLOROQUINE]
Result: > 10 µM

Request: Which AC50 is reported for this molecule? `CCOC(=O)[C@H](CCc1ccccc1)N[C@@H](C)C(=O)N1Cc2ccccc2C[C@H]1C(=O)O`
Result: > 10 µM

Request: Which AC50 is reported for this molecule? `CCOc1cc2ncc(C#N)c(Nc3ccc(OCc4ccccn4)c(Cl)c3)c2cc1NC(=O)/C=C/CN(C)C`
Result: > 10 µM

----------
Target chain: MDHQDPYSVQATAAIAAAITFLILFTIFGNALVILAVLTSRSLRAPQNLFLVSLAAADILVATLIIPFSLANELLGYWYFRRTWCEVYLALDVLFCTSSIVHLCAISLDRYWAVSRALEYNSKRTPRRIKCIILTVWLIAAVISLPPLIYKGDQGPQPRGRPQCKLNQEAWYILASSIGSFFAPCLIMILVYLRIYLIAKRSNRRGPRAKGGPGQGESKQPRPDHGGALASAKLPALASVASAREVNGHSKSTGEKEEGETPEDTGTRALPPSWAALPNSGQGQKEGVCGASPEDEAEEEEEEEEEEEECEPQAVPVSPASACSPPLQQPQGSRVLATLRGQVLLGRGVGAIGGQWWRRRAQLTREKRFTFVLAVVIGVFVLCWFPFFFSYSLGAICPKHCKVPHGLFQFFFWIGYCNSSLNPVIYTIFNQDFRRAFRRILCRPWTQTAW
We begin with a simple list: items and their reported AC50.

Please review the following examples before continuing.
1) CCC[C@@]1(CCc2ccccc2)CC(O)=C([C@H](CC)c2cccc(NS(=O)(=O)c3ccc(C(F)(F)F)cn3)c2)C(=O)O1
> 30 µM
2) O=C(Cc1cccs1)N[C@@H]1C(=O)N2C(C(=O)[O-])=C(C[n+]3ccccc3)CS[C@H]12
> 30 µM
3) COC(=O)[C@H]1[C@H]2C[C@@H]3c4[nH]c5ccccc5c4CCN3C[C@H]2C[C@@H](OC(=O)c2cc(OC)c(OC)c(OC)c2)[C@@H]1OC
> 10 µM
4) COc1ccc(C(Cl)=C(c2ccc(OC)cc2)c2ccc(OC)cc2)cc1
> 30 µM
5) C[C@]12CCC(=O)C=C1C=C[C@@H]1[C@@H]2CC[C@@]2(C)[C@H]1CC[C@@]21CCC(=O)O1
> 30 µM
6) Nc1c2c(nc3ccccc13)CCCC2O (centres undefined)
> 30 µM
7) CN(C)CCN(Cc1ccccc1)c1ccccn1
11 µM
8) CCC(=O)[C@@]1(C)[C@H](C)C[C@H]2[C@@H]3CCC4=CC(=O)C=C[C@]4(C)[C@H]3[C@@H](O)C[C@@]21C [RIMEXOLONE]
> 10 µM

// next item, AC50 requested
Request: Which AC50 is reported for this compound? `CN(C)CCc1c[nH]c2ccc(CS(=O)(=O)N3CCCC3)cc12`
Result: 30 µM

----------
Biological target: UniProtKB P11229
Sequence (P11229 whole entry): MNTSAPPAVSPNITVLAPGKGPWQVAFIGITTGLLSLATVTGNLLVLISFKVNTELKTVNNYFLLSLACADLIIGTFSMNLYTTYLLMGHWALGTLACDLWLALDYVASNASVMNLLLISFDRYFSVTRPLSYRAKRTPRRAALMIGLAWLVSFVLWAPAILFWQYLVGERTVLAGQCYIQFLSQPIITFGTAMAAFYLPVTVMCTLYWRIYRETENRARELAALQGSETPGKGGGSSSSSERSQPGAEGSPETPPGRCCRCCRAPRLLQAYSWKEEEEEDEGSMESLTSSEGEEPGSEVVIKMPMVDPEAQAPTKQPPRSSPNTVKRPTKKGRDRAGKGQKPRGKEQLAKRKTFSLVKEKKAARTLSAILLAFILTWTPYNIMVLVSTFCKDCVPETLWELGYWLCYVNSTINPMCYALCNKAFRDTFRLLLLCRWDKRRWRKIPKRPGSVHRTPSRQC
Assay type: functional
We begin with a simple list: items and their reported AC50.

Please review the following examples before continuing.
1. Cn1cnc2c(F)c(Nc3ccc(Br)cc3F)c(C(=O)NOCCO)cc21
> 30 µM
2. C[C@]12CCC(=O)C=C1CC[C@H]1[C@@H]3CC[C@](O)(C(=O)CO)[C@@]3(C)C[C@H](O)[C@@]12F
> 10 µM
3. COc1ccc(C(=O)c2ccccc2)c(O)c1
> 30 µM

Request: Which AC50 is reported for this compound? `COC(=O)[C@H]1[C@H]2C[C@@H]3c4[nH]c5ccccc5c4CCN3C[C@H]2C[C@@H](OC(=O)c2cc(OC)c(OC)c(OC)c2)[C@@H]1OC`
Result: > 10 µM

Request: Which AC50 is reported for this compound? `C[C@]12CCC(=O)C=C1[C@@H]1C[C@@H]1[C@H]1[C@@H]3[C@@H]4C[C@@H]4[C@@]4(CCC(=O)O4)[C@@]3(C)CC[C@@H]12`
Result: > 30 µM

Request: Which AC50 is reported for this compound? `C[C@H](Nc1ncnc2[nH]cnc12)c1cc2cccc(Cl)c2c(=O)n1-c1ccccc1`
Result: > 30 µM

----------
Each entry below carries its measured AC50, system: Gamma-aminobutyric acid receptor subunit alpha-1 (Rattus norvegicus). Also: assay procedure not described here.
Sequence (P62813 whole entry): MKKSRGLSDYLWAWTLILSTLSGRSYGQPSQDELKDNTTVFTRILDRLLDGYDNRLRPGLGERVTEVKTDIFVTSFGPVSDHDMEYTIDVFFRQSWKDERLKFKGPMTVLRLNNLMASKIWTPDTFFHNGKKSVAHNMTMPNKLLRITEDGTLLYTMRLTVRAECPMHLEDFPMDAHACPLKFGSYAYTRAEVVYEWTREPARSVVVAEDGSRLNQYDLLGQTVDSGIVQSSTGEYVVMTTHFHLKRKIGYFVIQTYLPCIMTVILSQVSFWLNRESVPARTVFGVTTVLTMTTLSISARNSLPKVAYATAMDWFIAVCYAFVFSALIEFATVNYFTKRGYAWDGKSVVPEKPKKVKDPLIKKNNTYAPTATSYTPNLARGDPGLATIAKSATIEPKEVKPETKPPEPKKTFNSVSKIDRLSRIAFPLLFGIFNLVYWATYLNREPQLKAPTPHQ

Please review the following examples before continuing.
1. Nc1cc(N2CCCCC2)nc(N)[n+]1[O-]
> 10 µM
2. COc1cccc2c1C(=O)c1c(O)c3c(c(O)c1C2=O)C[C@@](O)(C(=O)CO)C[C@@H]3O[C@H]1C[C@H](N)[C@H](O)[C@H](C)O1
> 10 µM
3. NS(=O)(=O)c1ccc(N2CCCCS2(=O)=O)cc1
> 30 µM
4. Cc1nnc2n1-c1ccc(Cl)cc1C(c1ccccc1)=NC2
> 10 µM
5. COc1ccc(-n2nc(C(N)=O)c3c2C(=O)N(c2ccc(N4CCCCC4=O)cc2)CC3)cc1
> 30 µM
6. CO/N=C(\C(=O)N[C@@H]1C(=O)N2C(C(=O)[O-])=C(C[n+]3ccc(N)n3CCO)CS[C@H]12)c1csc(N)n1
> 30 µM
7. CN1C(=O)CN=C(c2ccccc2F)c2cc([N+](=O)[O-])ccc21
> 10 µM
8. Clc1ccc(COC(Cn2ccnc2)c2ccc(Cl)cc2Cl)c(Cl)c1 (configuration not stated)
> 10 µM

Request: Quick check: AC50 on Gamma-aminobutyric acid receptor subunit alpha-1 (Rattus norvegicus), item CCCO[C@H]1[C@@H]([C@@H](COCc2ccc(Cl)cc2)OCc2ccc(Cl)cc2)OC(OCC)[C@@H]1O (some centres not stated) [CLOBENOSIDE] ?
Result: > 30 µM

Request: Quick check: AC50 on Gamma-aminobutyric acid receptor subunit alpha-1 (Rattus norvegicus), item `C=CC1=C(C(=O)O)N2C(=O)[C@@H](NC(=O)/C(=N\O)c3csc(N)n3)[C@H]2SC1` ?
Result: > 10 µM

Request: Quick check: AC50 on Gamma-aminobutyric acid receptor subunit alpha-1 (Rattus norvegicus), item `N=C(N)NC(=O)Cc1c(Cl)cccc1Cl` ?
Result: > 30 µM

Request: Quick check: AC50 on Gamma-aminobutyric acid receptor subunit alpha-1 (Rattus norvegicus), item C[C@H](Cn1cnc2c(N)ncnc21)OCP(=O)(O)O [TENOFOVIR ANHYDROUS] ?
Result: > 30 µM
